experiment.notes: soluble on expression in E. coli; label from the status in PepcDB or PDB records
property.measured: soluble on expression in E. coli

Observe how each entry below is paired with its result.
MKYLLPTAAAGLLLLAAQPAMAMASGGNSDSKTLNSLDKIKQNGVVRIGVFGDKPPFGYVDEKGNNQGYDIALAKRIAKELFGDENKVQFVLVEAANRVEFLKSNKVDIILANFTQTPQRAEQVDFCSPYMKVALGVAVPKDSNITSVEDLKDKTLLLNKGTTADAYFTQNYPNIKTLKYDQNTETFAALMDKRGDALSHDNTLLFAWVKDHPDFKMGIKELGNKDVIAPAVKKGDKELKEFIDNLIIKLGQEQFFHKAYDETLKAHFGDDVKADDVVIEGGKILEHHHHHH soluble
MGSDKIHHHHHHMACVRDKPVSGPPTSLSAPHLRISLAFRGGLCPYSRARPEKDYAFKGNFVLRDLIANGQSMRTISLPRGRQRLHAMPTSTGYEVREDEIYDWDGRKRGQTPFTVLQHTISGTGRLRYENRNYRLQENDTLLVLVPHNHRYWLASDERWEYFWISMNGEEALRIHKSILSISGPVFRLKPATIDHLADCSLRLINGAASAGAASAIAYEAAMALYDDVFGSHAFAEKLSAMQPVIDHINANLDRPLPVADLVQISGLSRAHFSRCFAESEGLPPAEFVLQQRLQRAAKLLTKADFLPVKEVAILCGFEDANYFSKVFRRLYGTTPSQFRTTGMYANLRTPARRGVRVSDDET not soluble
MGSDKIHHHHHHMHLLFPEVCILCQKPLGEGEEHICAGCFNDFNPFPSVLAGGAALKSTVRAHFGEKAVPAAAWCLYPYRSRGSLHEAMHAMKYGGLFPLGELFGKRLGELICQGGVPVGFDAIVPVPLHHLKRIERTYNQAEALARGMAGLIGLPVATRSLERCVYTGTQTGLGLEARRENMAGAFRPGRERCPARVLLVDDVLTTGATMVSAAKVLKAAGAVEVAFATVALTEKE not soluble
MQDEVVLLDFWPSPFGMRVRIALAEKGIKYEYKEEDLRNKSPLLLQMNPVHKKIPVLIHNGKPICESLIAVQYIEEVWNDRNPLLPSDPYQRAQTRFWADYVDKKIYDLGRKIWTSKGEEKEAAKKEFIEALKLLEEQLGDKTYFGGDNLGFVDIALVPFYTWFKAYETFGTLNIESECPKFIAWAKRCLQKESVAKSLPDQQKVYEFIMDLRKKLGIE soluble
MKKFALATIFALATTSAFAGFNGNNSQGGFQQAAPAAISVKQALSAADNSMITLVGNITQQIDDDEFWFTDGTGQIKIEIKKRVWNGLNVDSKDKVKIYGKLDNEVFEKAELDVLRIEKAE not soluble
MGSDKIHHHHHHMRKLYILGMILGMYATFSACNDEWKDELYTQMLSFKAPLGDNGLSEIYVRYQPDGTGIYQLPVIVSGSKSNSRNIDAKIAVDEDTLRILNQEKFPVGRQDLWYVPLAEQHYSFESNICHIPAGENIQLYPIHFNFNGLELDEKYVLPLTIEEDPSYVQNKYKGRYKALLGVNLFNDYSGTYNTTLMNIYIEGTTTDPAKVDTRLARVVDENTIFFYAGSTWVEDENRSRYKVFVEFEEGTEDEEGTIKGKLRLYGDEGEPGINIRPLGECKYEKRIIQHETIKYMERHLTTLELSYKYTDVTSNPDYPITYEVKGSMTMERQINPLIPDEDQAIEW not soluble

State, in one line, measured soluble on expression in E. coli of "MSLEDGYKVEVGKNAYLPCSYTLPTSGTLVPMCWGKGFCPWSQCTNELLRTDERNVTYQKSSRYQLKGDLNKGDVSLIIKNVTLDDHGTYCCRIQFPGLMNDKKLELKLDIKAALVPR" soluble

State, in one line, measured soluble on expression in E. coli of "MGSDKIHHHHHHMSSTPSNQNIIPIIKKESIVSLFEKGIRQDGRKLTDYRPLSITLDYAKKADGSALVKLGTTMVLAGTKLEIDKPYEDTPNQGNLIVNVELLPLAYETFEPGPPDENAIELARVVDRSLRDSKALDLTKLVIEPGKSVWTVWLDVYVLDYGGNVLDACTLASVAALYNTKVYKVEQHSNGISVNKNEVVGKLPLNYPVVTISVAKVDKYLVVDPDLDEESIMDAKISFSYTPDLKIVGIQKSGKGSMSLQDIDQAENTARSTAVKLLEELKKHLGI" not soluble

State, in one line, measured soluble on expression in E. coli of "MSLTEWLTIFDSERNTLGKKLRDEVHRDGNWHETFHCWFVEKDAEDMFLYFQLRSKNKKEAPLIWDITSAGHIMHDEDVQIGGLREIEEELGLSFQTTDLAYKGIFTIDYEISNLTDREFCHMYFHNVINPLPFAPGEEVDDVMKIHATSFLQLLKREISSFTATSVLSNKSITITFSDIYPYDFAYYEFVVEQGKELLKNNDEGHHHHHH" soluble

State, in one line, measured soluble on expression in E. coli of "MISSIRLDLFRTKVFVMPLKFPLSICLLGTFLVTSAQAQEAVKGVVELFTSQGCASCPPADEALRKMIQKGDVVGLSYHVDYWNYLGWTDSLASKENTERQYGYMRALGRNGVYTPQAILNGRDHVKGADVRGIYDRLDAFKREGQGLNVPVSSKFAGDEVEIDIGAGNGKADVVVAYFTREQTVDVQKGENQGKKMSYWHSVYDVQTVGMWDGSPMTVKLPASVVAKVKKGGCAVLLQTANASGDPAAIVGASILLGNETQLEHHHHHH" soluble

State, in one line, measured soluble on expression in E. coli of "MQHYLLDSNQRLNVSFSKDSVAAYYQCFNQPYRKEVPPLMCASLWPKFDLFKKYANSELILTKSAINQTQKIEVDTIYVGHLEDIECRQTRNITRYTMALTLTKNDQHVITVTQTFIKAMKLEHHHHHH" soluble

State, in one line, measured soluble on expression in E. coli of "MGSDKIHHHHHHMSEVHTTIIDLDAGAVFSGTPSGRIIKGFDKPCAHTPNIDPDYVFHECSRDIVVWLMDSSDPLYVFGPTGSGKTSAIKQLAARLNYPVFDVTGHGRLEFPDLVGHLSVRDGSMEFQYGPLALAMRHGGILLLNEIDLLEPATATGFNGILDGEPLCIPENGGEIITPHPMFRFAATANTNGGSDDTGLYQGTLRQNLAFLDRFWLCEMPYPAPEAEKALLERRAPMLPDDIRTRMVDYANEVRRLFMGESGTTYGHSIEVTFSTRTLLRWADLTVRFQPLARQGIQPLTYALDRALGFKASKDTRTTLHELAQRLFPQHAATGE" not soluble
